experiment: NCI Yeast Anticancer Drug Screen. Data for the mlh1 rad18 strain (AID 175); conditions: S. cerevisiae mlh1 rad18 strain growth inhibition; at 50.0 µM (retest, dose inferred, filed as 5.0); stronger effect = higher value
This is part of a sample that, as a whole, favours compounds with a hit. Of some 79,000 tested, about 15% had one in any assay.
Is growth inhibition at least 40%? Then Satisfied. If not, Not satisfied.

Answered examples (5):
{"molecule": "CCC/C(=N\\NC(=S)N1CCCCCC1)c1ccccn1", "group label": "Satisfied"}
{"molecule": "CC(=O)c1cc(-c2ccccc2)nc2ccccc12", "group label": "Satisfied"}
{"molecule": "Cc1ccc(S(=O)(=O)Nc2ccc3c(c2)C(=O)c2ccccc2-3)cc1", "group label": "Satisfied"}
{"molecule": "Nc1c(F)cccc1F", "group label": "Not satisfied"}
{"molecule": "CN(C)c1nc(N(C)C)oc(=[N+](C)C)n1", "group label": "Not satisfied"}

Data request: Textbook exercise: given the entry "C=CCOc1ccc2c(c1)CC=C1[C@@H]2CC[C@]2(C)C(=N\O)/C(=N/O)C[C@@H]12" , state whether its growth inhibition is greater than or equal to 40%.
Data returned: Satisfied

Data request: Textbook exercise: given the entry "O=S1(=O)CS(=O)(=O)OCCCO1" , state whether its growth inhibition is greater than or equal to 40%.
Data returned: Not satisfied

Data request: Textbook exercise: given the entry CC(=O)OCC1(O)OCC(OC(C)=O)C(OC(C)=O)C1OC(C)=O (centres undefined) , state whether its growth inhibition is greater than or equal to 40%.
Data returned: Not satisfied

Data request: Textbook exercise: given the entry COC1/C=C/OC2(C)Oc3c(C)c(O)c4c(c3C2=O)C(=O)C=C(NC(=O)/C(C)=C\C=C\C(C)C(OC=O)C(C)C(O)C(C)C(OC(C)=O)C1C)C4=O (centres undefined) , state whether its growth inhibition is greater than or equal to 40%.
Data returned: Not satisfied

Data request: Textbook exercise: given the entry "Cc1ccc(S(=O)(=O)Nc2ccc3c(c2)Cc2cc([N+](=O)[O-])ccc2-3)cc1" , state whether its growth inhibition is greater than or equal to 40%.
Data returned: Satisfied

Data request: Textbook exercise: given the entry "O=C(CCSCCC(=O)NNc1ccccc1)NNc1ccccc1" , state whether its growth inhibition is greater than or equal to 40%.
Data returned: Satisfied

Data request: Textbook exercise: given the entry "CSc1ccc2c(c1)S[S@@](=O)N2" , state whether its growth inhibition is greater than or equal to 40%.
Data returned: Not satisfied

Data request: Textbook exercise: given the entry "CCN(CC)CCCNc1c(O)cc(C)c2sc3ccccc3c(=O)c12" , state whether its growth inhibition is greater than or equal to 40%.
Data returned: Satisfied

Data request: Textbook exercise: given the entry "[N-]=[N+]=Nc1ccc(SSCCC(=O)ON2C(=O)CCC2=O)cc1" , state whether its growth inhibition is greater than or equal to 40%.
Data returned: Satisfied

Data request: Textbook exercise: given the entry CCCCCCCCCCCC(=O)OCC1OC(n2cc(F)c(=O)[nH]c2=O)C(N)C(O)C1O (centres undefined) , state whether its growth inhibition is greater than or equal to 40%.
Data returned: Not satisfied

Data request: Textbook exercise: given the entry CCOC(=O)C(NC(=O)C(CO)n1c(-c2ccccc2)c(-c2ccccc2)oc1=O)C(=O)OCC (centres undefined) , state whether its growth inhibition is greater than or equal to 40%.
Data returned: Not satisfied

Data request: Textbook exercise: given the entry "CN(C)N=Nc1ccc(Cl)c2ncccc12" , state whether its growth inhibition is greater than or equal to 40%.
Data returned: Not satisfied

Data request: Textbook exercise: given the entry COc1ccc(C(SCC(N)C(=O)O)(c2ccc(OC)cc2)c2ccc(OC)cc2)cc1 (centres undefined) , state whether its growth inhibition is greater than or equal to 40%.
Data returned: Satisfied

Data request: Textbook exercise: given the entry "Nc1ncnc2c1c(-c1ccccc1)cn2-c1ccc(Cl)cc1" , state whether its growth inhibition is greater than or equal to 40%.
Data returned: Not satisfied

###

assay: NCI Yeast Anticancer Drug Screen. Data for the mlh1 rad18 strain (AID 175); conditions: S. cerevisiae mlh1 rad18 strain growth inhibition; at 5.0 µM (retest, dose inferred, filed as 0.5); stronger effect = higher value
The panel holds about 79,000 compounds, 15% with a hit somewhere; the sample as a whole holds those more often.
experimental endpoint: growth inhibition (%)
Supply the numeric figure in %, leaving out any unit text.

Data request: Name the recorded growth inhibition of the molecule listed here: "COc1ccc(C(=O)C(CN2CCCC2)CN2CCCC2)cc1"
Data returned: 3

###

# maps each entry to its growth inhibition
assay: NCI Yeast Anticancer Drug Screen. Data for the rad50 strain (AID 155);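 also: 0% = growth of vehicle-only cultures of the same strain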; details: S. cerevisiae rad50 strain growth inhibition; at 5.0 µM (retest, dose inferred, filed as 0.5); stronger effect = higher value
This is part of a sample that, as a whole, favours compounds with a hit. Of some 79,000 tested, about 15% had one in any assay.
Supply the numeric figure in %, leaving out any unit text.

Worked cases, answers included:
{"compound": "C=Cc1ccc(B2NCCO2)cc1", "growth inhibition, %": -2}
{"compound": "CCOC1Oc2ccccc2-c2nc(SC)ncc21 (stereo unspecified)", "growth inhibition, %": 23}
{"compound": "CCCCCCCNc1ccc2c(cc1=O)C(NC(C)=O)CCc1cc(OC)c(OC)c(OC)c1-2 (stereo unspecified)", "growth inhibition, %": 17}

Data request: Name the recorded growth inhibition of the compound listed here: "Cn1c(C(C)(C)OC(=O)Oc2ccccc2)cnc1[N+](=O)[O-]"
Data returned: 0

Data request: Name the recorded growth inhibition of the compound listed here: CCCCCCC(C)OC(=O)/C=C/c1ccccc1 (stereo unspecified)
Data returned: 4

###

# maps each entry to its growth inhibition
test: NCI Yeast Anticancer Drug Screen. Data for the bub3 strain (AID 167); conditions: S. cerevisiae bub3 mutant strain, at 5.0 µM (retest, dose inferred, filed as 0.5), stronger effect = higher value
This is part of a sample that, as a whole, favours compounds with a hit. Of some 79,000 tested, about 15% had one in any assay.
Supply the numeric figure in %, leaving out any unit text.

Worked cases, answers included:
{"compound": "CC(=O)C1C(S)CC2C3CC=C4CC(O)CCC4(C)C3CCC21C (stereo not given)", "result number": 8}
{"compound": "CCOC(=O)/C=C(\\C)OCC", "result number": -5}
{"compound": "O=C(O)CC(CCCc1ccccc1)C(=O)O (stereo not given)", "result number": -5}

Data request: Name the recorded growth inhibition of the compound listed here: "C/C(CCSCc1ccccc1)=N/NC(N)=S"
Data returned: -1

Data request: Name the recorded growth inhibition of the compound listed here: "O=C1C=C(Br)C(=O)C(Br)=C1"
Data returned: 31

Data request: Name the recorded growth inhibition of the compound listed here: "ClC1=C(Cl)C2c3ccccc3C1c1ccccc12"
Data returned: -9

Data request: Name the recorded growth inhibition of the compound listed here: "S=c1nc(N2CCCCC2)ss1"
Data returned: 17

Data request: Name the recorded growth inhibition of the compound listed here: "O=[N+]([O-])c1ccc(NSc2ccccc2)cc1"
Data returned: 10

Data request: Name the recorded growth inhibition of the compound listed here: "CSC(=S)N/N=C(\C)c1nccnc1C"
Data returned: 21

Data request: Name the recorded growth inhibition of the compound listed here: "Cc1c(C)c2cc3c(=O)ccoc3c(C)c2oc1=O"
Data returned: -1

Data request: Name the recorded growth inhibition of the compound listed here: "C=CCNC(=O)NC1=CSC2=NC(=O)C3(NN12)c1ccccc1-c1ccccc13"
Data returned: -6

###

experiment: NCI Yeast Anticancer Drug Screen. Data for the bub3 strain (AID 167); conditions: S. cerevisiae bub3 mutant strain, at 50.0 µM, stronger effect = higher value
Compounds without any hit were thinned out: in the full panel of roughly 79,000, 15% have a hit.
experimental endpoint: growth inhibition (%)
Supply the numeric figure in %, leaving out any unit text.

Worked cases, answers included:
{"molecule": "CN(C)c1ccc(C2C=C(c3ccccc3)Oc3ccccc32)cc1 (stereo unspecified)", "result number": 95.8}
{"molecule": "CCOc1ccc2c(c1)[n+]([O-])c(-c1ccc(Cl)cc1)c(N)[n+]2[O-]", "result number": 99.2}
{"molecule": "CC(=O)/C(=C\\c1ccccc1Cl)C(=O)CCN(C)C", "result number": 18.4}
{"molecule": "CCCCCC(=O)/C=C/c1ccc(C)cc1", "result number": 61.8}

Data request: Name the recorded growth inhibition of the molecule listed here: C[N+](C)(C)c1nc(N)nc2c1ncn2C1OC(CO)C(O)C1O (stereo unspecified)
Data returned: -27.2

Data request: Name the recorded growth inhibition of the molecule listed here: "O=S(=O)(O)SCCNCCCCCC1CCCCC1"
Data returned: 52.2

###

assay: NCI Yeast Anticancer Drug Screen. Data for the mec2-1 strain (AID 157); settings: S. cerevisiae mec2-1 strain, at 50.0 µM (retest, dose inferred, filed as 5.0), stronger effect = higher value
Compounds without any hit were thinned out: in the full panel of roughly 79,000, 15% have a hit.
experimental endpoint: growth inhibition (%)
Supply the numeric figure in %, leaving out any unit text.

Worked cases, answers included:
{"compound": "CCOC(=O)CCc1ccc(OC)c(OC)c1", "growth inhibition / %": -4}
{"compound": "COC(=O)c1ccc(/C=C/C2=CC(=O)C=CC2=O)cc1", "growth inhibition / %": 41}

Okay, next one:
Data request: Name the recorded growth inhibition of the compound listed here: OCC(O)C(OC1OC(CO)C(O)C(O)C1O)C(O)C(/C=N/Nc1ccc(Br)cc1)=N/Nc1ccc(Br)cc1 (stereo not drawn)
Data returned: 98
